# cond: 308.15 K; 101.3 kPa; Liquid; Capillary tube (Ostwald / Ubbelohde) method
experimentalEndpoint: viscosity (mPa·s)
Use mPa·s as the unit, but write only the number.

{"columns": ["recordSmiles", "unitString", "viscosity"],
 "data": [
  ["N#CCc1ccccc1", "mPa·s", 1.585]
]}

// query viscosity value for entry CCC(C)=O
0.316

Repeat with CCC(=O)CC
0.371

Repeat with CC(=O)CC(C)C
0.455

Repeat with CCCC(C)=O
0.394

###

Recorded speed of sound for the following molecules
# cond: 308.15 K; 101.3 kPa; Liquid; Sing-around technique in a fixed-path interferometer
Use m/s as the unit, but write only the number.

{"columns": ["molecule", "experimentalEndpoint", "resultValue"],
 "data": [
  ["CCC(=O)CC [pentan-3-one]", "speed of sound", 1185],
  ["CCCC(C)=O [pentan-2-one]", "speed of sound", 1179],
  ["CCC(C)=O [butanone]", "speed of sound", 1157]
]}

// query speed of sound value for entry N#CCc1ccccc1 [benzeneacetonitrile]
1518

Repeat with CC(=O)CC(C)C [4-methylpentan-2-one]
1150

###

# cond: 308.15 K; 101.3 kPa; Liquid; Pycnometric method
experimentalEndpoint: mass density (kg/m3)
Use kg/m3 as the unit, but write only the number.

Some molecules with recorded mass density:
{"columns": ["molecule", "mass density / kg/m3"],
 "data": [
  ["CCC(=O)CC [pentan-3-one]", 800],
  ["N#CCc1ccccc1 [benzeneacetonitrile]", 1003.2],
  ["CCCC(C)=O [pentan-2-one]", 790.8],
  ["CCC(C)=O [butanone]", 789.2]
]}

// query mass density value for entry CC(=O)CC(C)C [4-methylpentan-2-one]
786.8
